target: cynomolgus CD45 ectodomain; test: Biolayer interferometry (BLI, Octet) binding of immobilized IgG to purified CD45 ectodomain; conditions: Table 2, Cynomolgus CD45; 50 nM antigen (Ab1: 300 nM)
Sequence (as listed by the source): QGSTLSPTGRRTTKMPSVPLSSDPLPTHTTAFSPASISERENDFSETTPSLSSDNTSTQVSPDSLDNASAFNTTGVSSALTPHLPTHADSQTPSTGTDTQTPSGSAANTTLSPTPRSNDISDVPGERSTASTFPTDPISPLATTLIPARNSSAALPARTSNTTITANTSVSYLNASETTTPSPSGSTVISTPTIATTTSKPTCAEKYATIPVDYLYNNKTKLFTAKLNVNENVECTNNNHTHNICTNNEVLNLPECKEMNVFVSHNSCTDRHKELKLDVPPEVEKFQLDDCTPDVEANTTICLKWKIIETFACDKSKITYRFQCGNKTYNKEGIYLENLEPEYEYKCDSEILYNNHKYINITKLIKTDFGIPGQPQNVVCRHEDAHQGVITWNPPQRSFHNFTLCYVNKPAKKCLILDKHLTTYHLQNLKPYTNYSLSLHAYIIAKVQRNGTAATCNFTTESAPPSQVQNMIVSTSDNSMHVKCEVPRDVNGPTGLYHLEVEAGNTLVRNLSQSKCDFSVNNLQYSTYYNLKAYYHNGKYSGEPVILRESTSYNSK
Reported pKd values are given for each entry in this list.
// returns pKd (minus log10 of molar concentration), number only

molecule="Ab3: affinity matured human anti-CD45 IgG derived from Ab1; VH SEQ ID NO:21, VL SEQ ID NO:25 (antibody, V domains shown) VH: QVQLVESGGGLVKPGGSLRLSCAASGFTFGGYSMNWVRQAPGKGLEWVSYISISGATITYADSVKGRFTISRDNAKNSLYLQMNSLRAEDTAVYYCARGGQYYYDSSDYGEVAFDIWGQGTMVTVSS VL: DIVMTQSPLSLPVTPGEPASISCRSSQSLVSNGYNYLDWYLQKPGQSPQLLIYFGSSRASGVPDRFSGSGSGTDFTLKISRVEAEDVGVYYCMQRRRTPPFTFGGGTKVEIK" value_reported=8.79
molecule="Ab4: affinity matured human anti-CD45 IgG derived from Ab1; VH SEQ ID NO:31, VL SEQ ID NO:35 (antibody, V domains shown) VH: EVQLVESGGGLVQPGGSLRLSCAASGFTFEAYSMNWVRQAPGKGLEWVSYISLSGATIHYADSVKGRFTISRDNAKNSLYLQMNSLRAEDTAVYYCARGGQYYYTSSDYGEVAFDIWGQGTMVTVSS VL: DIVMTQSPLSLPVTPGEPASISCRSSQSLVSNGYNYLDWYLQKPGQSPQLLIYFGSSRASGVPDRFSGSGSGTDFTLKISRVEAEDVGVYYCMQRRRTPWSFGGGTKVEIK" value_reported=9.14

Now for the molecule whose pKd we want.
State its pKd for this molecule: Ab6: affinity matured human anti-CD45 IgG derived from Ab1; VH SEQ ID NO:51, VL SEQ ID NO:55 (antibody, V domains shown) VH: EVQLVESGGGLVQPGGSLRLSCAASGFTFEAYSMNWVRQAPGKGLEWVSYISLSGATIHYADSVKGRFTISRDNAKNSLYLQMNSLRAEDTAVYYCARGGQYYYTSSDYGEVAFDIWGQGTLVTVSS VL: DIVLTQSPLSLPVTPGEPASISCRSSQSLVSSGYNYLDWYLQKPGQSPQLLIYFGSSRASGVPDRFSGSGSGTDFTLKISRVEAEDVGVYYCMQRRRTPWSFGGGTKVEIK
8.89

# credit: patent US12209135B2
